Tested on: T-24
assay summary: cells
assay context: Homo sapiens
Description: Antiproliferative activity against human T-24 cells assessed as cell growth inhibition incubated for72 hrs by MTT assay
Please provide measured IC50 for the entries that follow.
Respond with the bare value in nM.

### Prompt GET /values?readout=IC50&item= COc1cc(-n2ncc3ccc(-c4ccc5c(c4)CCO5)cc32)cc(OC)c1OC
### Response 110

### Prompt Entry under review: COc1ccc(-c2ccc3cnn(-c4cc(OC)c(OC)c(OC)c4)c3c2)cn1 . Reported IC50?
### Response 190

### Prompt Field request: IC50 | item: COc1cc(-n2nc(C)c3ccc(-c4ccc(C)cc4)cc32)cc(OC)c1OC
### Response 140

### Prompt // returns reported IC50 for input COc1ccc(-c2ccc3cnn(-c4cc(OC)c(OC)c(OC)c4)c3c2)cc1
### Response 110

### Prompt Form field: reported IC50 of COc1cc(-n2ncc3ccc(-c4ccc(Cl)cc4)cc32)cc(OC)c1OC
### Response 320

### Prompt What measured IC50 goes with COc1cc(-n2ncc3ccc(-c4ccncc4)cc32)cc(OC)c1OC ?
### Response 16400

### Prompt Entry under review: COc1cc2c(c(OC)c1OC)-c1ccc(OC)c(=O)cc1[C@@H](NC(C)=O)CC2 . Reported IC50?
### Response 46

### Prompt What value of IC50 has been reported for the following molecule? COc1cc(-c2ccc3c(C)nn(-c4ccc5c(c4)CCO5)c3c2)cc(OC)c1OC
### Response 4820

### Prompt Recorded IC50 for COc1cc(-n2ncc3ccc(-c4ccc(C)nc4)cc32)cc(OC)c1OC.Cl , please?
### Response 46

### Prompt Which value of IC50 has been reported for COc1cc(-n2ncc3ccc(-c4ccc(C)cc4)cc32)cc(OC)c1OC in the records?
### Response 92

---

System: T-24
assay summary: cells
assay context: Homo sapiens
parameter: IC50 (nM)
Response body: numeric value in nM, unit text excluded.

### Prompt What measured IC50 goes with COc1ccc(-c2ccc3c(C)nn(-c4cc(OC)c(OC)c(OC)c4)c3c2)cn1 ?
### Response 2230

### Prompt # query: IC50 of entry COc1cc(-n2ncc3ccc(-c4ccccc4)cc32)cc(OC)c1OC
### Response 80

### Prompt Tell me the measured IC50 of COc1cc(-n2ncc3ccc(-c4ccc5[nH]ccc5c4)cc32)cc(OC)c1OC , please.
### Response 170

### Prompt # get_value(readout='IC50', item= COc1cc(-n2ncc3ccc(-c4cccc5[nH]ccc45)cc32)cc(OC)c1OC )
### Response 30

### Prompt GET /values?readout=IC50&item= COc1ccc(-c2ccc3c(C)nn(-c4cc(OC)c(OC)c(OC)c4)c3c2)cc1
### Response 280

### Prompt Look at this compound and give its reported IC50. COc1cc(-n2ncc3ccc(-c4ccc5c(ccn5C)c4)cc32)cc(OC)c1OC
### Response 120

### Prompt Need IC50, item CCOc1ccc(-c2ccc3cnn(-c4cc(OC)c(OC)c(OC)c4)c3c2)cc1
### Response 2280

### Prompt Please look up its IC50: COc1ccc2c(Nc3cc(OC)c(OC)c(OC)c3)n[nH]c2c1
### Response 130

### Prompt Given the compound COc1cc(-n2ncc3ccc(-c4ccc(F)cc4)cc32)cc(OC)c1OC , what is its reported IC50?
### Response 270
